B1: PSD2 (parent)
chain: LTHFSRRYCQCNPDDSTSEDGIHT

# Variants of: B1
# runDescription: protein stability index of a GFP-peptide fusion (GPS, HEK-293T) (PSI 1-6); higher = more stable;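 further: lentivirally expressed fusions sorted by FACS into six bins by GFP to DsRed ratio, PSI derived from sequencing read proportions per bin multiplied by bin number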
# conditionDescription: c terminus: a fixed tail appended
If the reported protein stability index equals or exceeds 4, assign label 1. If not, assign label 0.

Some solved entries appear below for comparison.
[[record]]
sequencestring = "LTHWSRRYCQCNPDDSTSEDGIHT"
labelvalue = "label 0"

[[record]]
sequencestring = "LTHFSRRECQCNPDDSTSEDGIHT"
labelvalue = "label 1"

[[record]]
sequencestring = "LTHFIRRYCQCNPDDSTSEDGIHT"
labelvalue = "label 0"

[[record]]
sequencestring = "LTHFSRRYCQCNSDDSTSEDGIHT"
labelvalue = "label 0"

[[record]]
sequencestring = "LTHFSRRPCQCNPDDSTSEDGIHT"
labelvalue = "label 1"


For this variant, is measured protein stability index 4 or higher? LDHFSRRYCQCNPDDSTSEDGIHT label 1

Try the variant LTHFSRRYCQCGPDDSTSEDGIHT label 0

Repeat with LTHFSRRYCQCNPDDSTSEDRIHT label 0

Entry LTHFSRRYCQCNPDDSTYEDGIHT please label 0

Same for LTHFSRRYCQCNPIDSTSEDGIHT label 0

What do you get for LWHFSRRYCQCNPDDSTSEDGIHT ? label 0

Please give the result for LTHFSRRYCQCNPDDSTWEDGIHT too. label 0

Lookup LTHFKRRYCQCNPDDSTSEDGIHT label 0

And then LTHFSRRYCQCNPDDSTSEDGGHT , what is it? label 0

Ok, now LTHFSRRYCQCNPDDQTSEDGIHT label 0

For LTHFSRRNCQCNPDDSTSEDGIHT then? label 1
